Every entry's value here was drawn from patent US20240270821A1.

Target: human glucagon receptor (human) (UniProt P47871)
Sequence (P47871 26-477): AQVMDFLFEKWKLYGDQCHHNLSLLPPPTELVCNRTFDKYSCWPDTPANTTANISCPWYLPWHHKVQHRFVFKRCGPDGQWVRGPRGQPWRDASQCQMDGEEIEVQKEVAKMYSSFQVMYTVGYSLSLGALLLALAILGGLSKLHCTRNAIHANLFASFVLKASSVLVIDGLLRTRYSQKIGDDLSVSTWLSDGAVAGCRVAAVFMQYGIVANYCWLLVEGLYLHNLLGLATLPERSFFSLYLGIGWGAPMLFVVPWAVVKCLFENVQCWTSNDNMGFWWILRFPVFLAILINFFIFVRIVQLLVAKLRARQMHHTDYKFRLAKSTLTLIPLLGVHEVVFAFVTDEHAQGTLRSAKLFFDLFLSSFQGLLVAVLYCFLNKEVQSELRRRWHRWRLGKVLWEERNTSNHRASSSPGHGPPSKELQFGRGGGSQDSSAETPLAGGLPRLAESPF
Experiment: cell-based or functional assay
Starred links: 1 amine or outer side, 2 acyl side, 3 side chain; linkers in the order of their positions; H or OH if unused. Non-standard residues stand in square brackets, D forms with d. Groups on a side chain read outwards from the residue. No end group written: not given here. *: point of attachment. C20 diacid = O=C(O)CCCCCCCCCCCCCCCCCCC(=O)*; γGlu = O=C(O)[C@H](CCC(=O)[*:2])N[*:1]; αMeL = CC(C)C[C@](C)(N)C(=O)O; AEEA = NCCOCCOCC(=O)O; Aib = CC(C)(N)C(=O)O
Param threshold (1000 nM) applies to cAMP Rel EC50 (1% HSA); output criterion met when value >= threshold, criterion not met when value < threshold.

Below are worked cases with known answers.
1. Y[Aib]QGTFTSDYSI[αMeL]LDKQAAK([AEEA-AEEA-γGlu-C20 diacid])QFVNWLLA[Aib]GPSSGEPPPSEG-NH2 [Example 325]: criterion not met
2. YXQGTXTSDXXIXLDXKAQXXFIEXLTEGGPSSGEPPPSGTGE (synthetic construct; SITE 2: note = 2-Aminoisobutyric Acid; SITE 6: note = alpha-methyl-2-fluoro-L-phenylalanine; SITE 10: note = 3-(4-Pyridyl)-L-alanine; SITE 11: note = alpha-methyl-L-serine; SITE 13: note = alpha-methyl-leucine; SITE 16: note = L-ornithine; SITE 17: note = Lysine is chemically mo) [Example 543]: criterion not met
3. YXQGTFTSDXSQXLDKKAQXAFIEYLLEAGPSSGAPPPSGX (synthetic construct; SITE 2: note = 2-Aminoisobutyric Acid; SITE 10: note = 3-(4-Pyridyl)-L-alanine; SITE 13: note = alpha-methyl-leucine; SITE 17: note = Lysine is chemically modified through conjugation of the epsilon-amino group of the Lysine side chain with (2-[2-(2-Amino-ethoxy)-ethoxy]-acetyl)) [Example 822]: criterion met

Now for a further binder.
Query: API: above_or_equal(metric=cAMP Rel EC50 (1% HSA), cutoff=1000 nM) for item Y[Aib]QGTFTSDYSI[αMeL]LDKQAAKQFVEWLIA[Aib]GPSSGEPPPGTG-NH2 (not fully specified (residue 20)) [Example 336]
Response: criterion met
